TARGET_OF_ASSAY: T1, TRAF2, Q12933
T1 chain: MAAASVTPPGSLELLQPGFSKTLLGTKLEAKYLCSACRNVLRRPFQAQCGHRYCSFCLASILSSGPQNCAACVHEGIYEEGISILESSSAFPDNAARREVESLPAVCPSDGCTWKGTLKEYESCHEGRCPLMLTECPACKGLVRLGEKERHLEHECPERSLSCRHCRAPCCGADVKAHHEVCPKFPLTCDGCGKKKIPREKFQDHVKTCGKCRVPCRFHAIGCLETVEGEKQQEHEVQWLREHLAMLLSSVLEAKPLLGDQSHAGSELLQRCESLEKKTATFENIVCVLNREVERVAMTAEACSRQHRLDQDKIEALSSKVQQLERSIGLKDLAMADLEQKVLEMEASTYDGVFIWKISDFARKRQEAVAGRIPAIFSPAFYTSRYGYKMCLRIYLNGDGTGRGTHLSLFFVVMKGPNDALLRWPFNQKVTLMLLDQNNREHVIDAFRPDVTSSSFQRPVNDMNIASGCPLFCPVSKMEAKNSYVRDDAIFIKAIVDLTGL
ASSAY_OVERVIEW: median log2 fold change of GCK-ALFA target abundance (FLAG IP / Myc IP barcode read proportion) (log2 ratio); each designed protein is fused to an ALFA-tag nanobody in HEK293 cells to bring the named protein to FLAG-tagged glucokinase (GCK); Myc marks an untargeted standard; higher = target protein stabilised (more abundant)
PROTOCOL_CONDITIONS: target protein: 3xFLAG-MCP-GCK-ALFA reporter; HEK293 landing pad (RPLP)
Over roughly 1,800 sequences, “median log2 fold change of GCK-ALFA target abundance (FLAG IP / Myc IP barcode read proportion)” has its median near 0.14; the lowest 2% begin near -0.84. The full list was thinned out, with the lowest values kept by preference.

BINDER	median log2 fold change
traf2_out_12_161_940 (protein) SSEHFQELSDVANKAFDKAQEIVDRVAEVSPALRPTFLAVARSLTLPVEEARAILDAAIAAHEAELTPEQLAEVRALGDELLAIQKEAQEEIKKIQEKYR	-1.56
traf2_out_6_156_2453 (protein) AAEAILERTEKEIEEGIKALAAAPEERKIAEINRIAGAFYRGLQALRAAGASLEELRAAAERLLETAEKKAKEAGLDERTRNLLLASLRAVADVALAAAA	-0.00113
